Source of measurements: the METLIN SMRT retention time set (Domingo-Almenara et al. 2019)

# TEST_METHOD_NOTES: gradient 5% acetonitrile 3 min, to 50% in 2 min, to 85% in 15 min, held 3 min, 100 µL/min
# ASSAY_SETUP: column: Zorbax Extend-C18 2.1 x 50 mm; eluents: water / acetonitrile, 0.1% formic acid
For each entry below, report its RP-LC retention time value.
Give bare numbers, in s.

                                   molecule  result_number
0  CC(C)NC(=O)N1CCN(Cc2nc3cc(C(C)(C)C)ccc3o2)CC1            712
1  O=C(c1cn[nH]c1)N1CCC(c2nc(CCOCC3CCCC3)no2)C1 (stereo unspecified)            717
2  Cc1noc2nc(C)n(CC(=O)Nc3cccc4c3CCCC4)c(=O)c12            871
3  COc1ccc(OC)c(NC(=O)C2CCN(S(=O)(=O)c3cn(C(C)C)cn3)CC2)c1            778
4   c1cn2cnnc2cc1-c1noc(-c2ccc3c(c2)OCO3)n1            792

Please give RP-LC retention time for each item listed below.
1. Cc1ccn2c(NC(=O)c3ccccc3)c(-c3ccccc3)nc2c1
2. Cn1cnnc1-c1nn(C)c2c1CN(C(=O)c1n[nH]c3c1CCCCCC3)CC2

[646, 650]

====

# TEST_METHOD_NOTES: gradient 5% acetonitrile 3 min, to 50% in 2 min, to 85% in 15 min, held 3 min, 100 µL/min
# ASSAY_SETUP: column: Zorbax Extend-C18 2.1 x 50 mm; eluents: water / acetonitrile, 0.1% formic acid
Class boundaries, taken from values of RP-LC retention time, are as follows: lower segment = under 700 s, middle segment = from 700 s up to 900 s, upper segment = 900 s and over

Here's what some known entries look like.
>>> print(df.to_string())
                                   compound  assigned_class
0  COc1cccc(NC(=O)c2sc(C)nc2-c2ccc([N+](=O)[O-])cc2)c1  middle segment
1  Cc1ccc(-c2noc(C3CCCN3S(=O)(=O)c3c(C)cc(C)cc3C)n2)cc1 (stereo unspecified)   upper segment

For this compound, which bin applies? `Cc1ccc(-c2csc(NC(=O)c3ccccc3Br)n2)cc1`
upper segment

Could you tell me which band `CCOc1ccc2nc(NC3=NCN(CCCOC)CN3)nc(C)c2c1` belongs to?
lower segment

Which of the defined bands does the recorded RP-LC retention time of COc1ccc(-c2noc(C3CCCN3C(=O)c3cc(Cl)ccc3OC)n2)cc1 (stereo unspecified) sit within?
upper segment

Record `CCNC(=O)CN1C(=O)CCCc2cc(S(=O)(=O)N3CCC(C)CC3)ccc21` — which class?
middle segment

Textbook exercise: identify the category of the compound given here, `Cc1ccc(C(=O)N2CCN(S(=O)(=O)c3cc4c5c(c3)CCC(=O)N5CCC4)CC2)cc1C` , according to its measured value.
middle segment

# bin label for `Cc1ccccc1NC(=O)Nc1ccc2nncn2c1`
lower segment

====

# TEST_METHOD_NOTES: gradient 5% acetonitrile 3 min, to 50% in 2 min, to 85% in 15 min, held 3 min, 100 µL/min
# ASSAY_SETUP: column: Zorbax Extend-C18 2.1 x 50 mm; eluents: water / acetonitrile, 0.1% formic acid
Classification by RP-LC retention time follows these ranges: lower = under 800 s, middle = from 800 s up to 900 s, upper = 900 s and over

See these solved cases before continuing.
                                   compound  assigned_class
0  Cc1ccccc1CC(=O)N1C[C@H](c2nc(-c3ccccc3)no2)[C@@H](C)C1           upper
1  CCc1cc(N2CCN(C(=O)c3cccc(C#N)c3)CC2)nc2nncn12           lower
2  O=S(=O)(c1ccccc1C(F)(F)F)N1CCc2nc(-c3ccc(F)cc3)ncc2C1           upper
3  Cc1ccc(CNS(=O)(=O)c2cc3c(s2)CCN(C(=O)C2CCC2)C3)cc1           upper
4  CCOC(=O)c1ccc(NC(=O)c2cn3c4c(ccc(Cl)c4c2=O)OCC3)cc1           upper

Which category does the recorded RP-LC retention time put `O=C(CCn1cnc2cc(-c3noc(-c4ccccc4Br)n3)ccc21)N1CCOCC1` in?
lower

Which RP-LC retention time band matches `O=C(Nc1ccccc1C(F)(F)F)N1CCC(N2CCN(Cc3cccc(F)c3)C(=O)C2=O)CC1` ?
middle

Band assignment needed for `CCOc1ccc(NC(=O)c2[nH]c3cc(C)sc3c2CN2CCOCC2)cc1` please.
upper

Band assignment needed for O=C(COc1ccccc1)N1CCCC(c2n[nH]c(C3CC3)n2)C1 (stereo not drawn) please.
lower

Form field 'band' for `CC(C)CNC(=O)CCc1nc2ccccc2n(CC(=O)NCc2ccccc2Br)c1=O`
middle

Just checking, what class would you give `Cc1ccc(-n2ncc3c(NCCCN(C)C)ncnc32)cc1Cl` here?
lower

Hey, which category is `Cc1noc(CNC(=O)c2ccc(OCc3nc(-c4ccco4)cs3)cc2)n1` in, do you know?
lower
